procedure.summary: chemical genetic growth profiling, strain panel (AID 1159580);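 note: tested at 20 µM; growth read once vehicle control cultures reached saturation at 30 °C; 1 = growth at the plate median or of vehicle wells; lower values mean less growth of the strain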
assay.context: S. cerevisiae deletion strains, growth OD, locus YPR141C, strain kar3, stronger effect = lower value
Among all 5,500 compounds or so, about 2,000 (36%) were called active. About 18% were inconclusive and are not listed. The list shows a part of the results.
// values below are reported normalized growth
No unit in the answer, please; the number alone is enough.

Answered examples (5):
COc1ccc(C(=O)c2ccc(O)cc2)c(O)c1O
1.01
CN1C(=O)CCS(=O)(=O)C1c1ccc(Cl)cc1 (stereo unspecified)
1.01
C1CCC(C(CC2CCCCN2)C2CCCCC2)CC1 (stereo unspecified)
1.03
CC(=O)O[C@@H]1CC[C@]2(C)C3CC[C@]4(C)C(=O)CCC4C3CC[C@H]2C1 (stereo partly specified)
0.991
CC(=O)O[C@H]1CC[C@]2(C)C3CC[C@@]4(C)C(CC5O[C@@]6(CCC(C)CO6)[C@@H](C)C54)C3CC[C@@H]2C1 (stereo partly specified)
0.98

Consider the record given below.
Item: CC(=O)OCC1=C(C(=O)O)N2C(=O)[C@@H](NC(=O)CCCC(N)C(=O)O)C2SC1 (stereo partly specified) | normalized growth: 1

###

procedure.summary: chemical genetic growth profiling, strain panel (AID 1159580);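 note: tested at 20 µM; growth read once vehicle control cultures reached saturation at 30 °C; 1 = growth at the plate median or of vehicle wells; lower values mean less growth of the strain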
assay.context: S. cerevisiae deletion strains, growth OD, locus YJL187C, strain SWE1 (second series), stronger effect = lower value
In all, about 5,500 compounds went through this assay and about 2,000 (36%) were called active. Inconclusive results (about 18%) are left out. The list shows a part of the results.
// values below are reported normalized growth
No unit in the answer, please; the number alone is enough.

Answered examples (3):
NC[C@H]1O[C@H](O[C@H]2C(O[C@@H]3O[C@H](CO)[C@@H](O)[C@H]3O)[C@@H](O)[C@H](N)C[C@@H]2N)[C@H](N)[C@@H](O)[C@@H]1O (stereo partly drawn)
0.991
NC1CC1c1ccccc1 (stereo not drawn)
1.02
CC1=NN(c2ccccc2)C(=O)C1
0.986

Item: "CCN(CC)CCNC(=O)c1cc(Cl)c(N)cc1OC" | normalized growth: 1.02

Item: "NC(=O)NO" | normalized growth: 1

Item: "CCOc1ccc(C(=O)c2cc(O)c(OC)c(OC)c2O)cc1" | normalized growth: 1.03

Item: CC(NCCC(c1ccccc1)c1ccccc1)c1ccccc1 (stereo not drawn) | normalized growth: 0.931

Item: "COc1cnc(NS(=O)(=O)c2ccc(N)cc2)nc1" | normalized growth: 0.965

Item: "CC(=O)[O][Hg][c]1ccccc1" | normalized growth: 0.0495

Item: "NC[C@H]1O[C@H](O[C@H]2[C@H](O)[C@@H](O[C@H]3O[C@H](CO)[C@@H](O)[C@H](N)[C@H]3O)[C@H](N)C[C@@H]2N)[C@H](N)C[C@@H]1O" | normalized growth: 1

Item: "O=C(O)[C@H](O)[C@@](O)(Cc1ccc(O)cc1)C(=O)O" | normalized growth: 1.04

###

procedure.summary: chemical genetic growth profiling, strain panel (AID 1159580);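 note: tested at 20 µM; growth read once vehicle control cultures reached saturation at 30 °C; 1 = growth at the plate median or of vehicle wells; lower values mean less growth of the strain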
assay.context: S. cerevisiae deletion strains, growth OD, locus YGL173C, strain kem1, stronger effect = lower value
Out of some 5,500 compounds screened, about 2,000 (36%) were called active. Another 18% or so got no clear call; they are omitted. This is one part of the list.
// values below are reported normalized growth
No unit in the answer, please; the number alone is enough.

Answered examples (2):
COc1cc(-c2coc3cc(O[C@@H]4O[C@H](CO)[C@@H](O)[C@H](O)[C@H]4O)c(OC)c(O)c3c2=O)cc(O)c1OC
1
CNS(=O)(=O)c1ccc(NC(=O)c2ccccc2C(=O)O)cc1
0.997

Item: "O=C(CCc1ccc(O)cc1)c1c(O)cc(O)cc1O[C@@H]1O[C@H](CO)[C@@H](O)[C@H](O)[C@H]1O" | normalized growth: 1.02

Item: "CC(=O)NS(=O)(=O)c1ccc(NC(=O)c2ccccc2C(=O)O)cc1" | normalized growth: 1.02

Item: "CC[C@H]1OC(=O)[C@H](C)[C@@H](O[C@H]2C[C@@](C)(OC)[C@@H](O)[C@H](C)O2)[C@H](C)[C@@H](O[C@@H]2O[C@H](C)C[C@H](N(C)C)[C@H]2O)[C@](C)(O)C[C@@H](C)[C@@H]2N[C@@H](COCCOC)O[C@H]([C@H]2C)[C@]1(C)O" | normalized growth: 0.984

Item: "Cc1onc(-c2c(Cl)cccc2Cl)c1C(=O)N[C@@H]1C(=O)N2[C@@H]1SC(C)(C)[C@@H]2C(=O)O" | normalized growth: 0.961

# credit: PubChem BioAssay AID1159580
